Value source: patent US20100173013A1

Test system: SUM-190PT inflammatory breast carcinoma cells
Assay: cells
Settings: read-out: IC50 (single agent); SUM-190PT; drug added 24 hours before Compound K, 5 day assay
metric-name: IC50
Write down the value, and be sure its unit follows.

**Q:** Field: IC50 (SUM-190PT inflammatory breast carcinoma cells). Entry: O=C(O)c1ccc2c(c1)nc(Nc1cccc(Cl)c1)c1ccncc12 [Compound K]
**A:** 852 nM

###

Tested on: MIA PaCa-2 pancreatic cancer cells
Test: Alamar Blue cell inhibition assay, MIA PaCa-2
Settings: read-out: IC50 (single agent); MIA PaCa-2; drug added 24 hours before Compound K, 5 day assay
metric-name: IC50

**Q:** Give the measured IC50 of O=C(O)c1ccc2c(c1)nc(Nc1cccc(Cl)c1)c1ccncc12 .
**A:** 4.1 µM

###

Test system: SUM-149PT inflammatory breast carcinoma cells
Assay: Alamar Blue cell inhibition assay, SUM-149PT
Assay type: cell-based
Details: Homo sapiens, SUM149PT; read-out: IC50 (single agent)
Listing of recorded pIC50 by entry.
In simple prose, pIC50 is minus the logarithm base ten of a concentration in moles per litre.

molecule	pIC50
C#Cc1cccc(Nc2ncnc3cc(OCCOC)c(OCCOC)cc23)c1 [Erlotinib]	5.66

**Q:** Give the measured pIC50 of O=c1[nH]cc(F)c(=O)[nH]1 [5-Fluorouracil] .
**A:** 5.77

**Q:** Give the measured pIC50 of CO[C@H]1C[C@@H]2CC[C@@H](C)[C@@](O)(O2)C(=O)C(=O)N2CCCC[C@H]2C(=O)O[C@H]([C@H](C)C[C@@H]2CC[C@@H](O)[C@H](OC)C2)CC(=O)[C@H](C)/C=C(\C)[C@@H](O)[C@@H](OC)C(=O)[C@H](C)C[C@H](C)/C=C/C=C/C=C/1C [Rapamycin] .
**A:** 5.01

###

Tested on: MDA-MB-468 breast cancer cells
Assay: Alamar Blue cell inhibition assay, MDA-MB-468
Format: cell-based
Details: Homo sapiens, MDA-MB-468, 120 h, Compound K added first, drug the next day, 5 day assay, read-out: IC50 (single agent)
Listing of recorded IC50 by entry.
Use nM as the unit, but write only the number.

> print(dat)
                           structure.smiles  test.result
1  Nc1ccn([C@@H]2O[C@H](CO)[C@@H](O)C2(F)F)c(=O)n1            8
2                   O=c1[nH]cc(F)c(=O)[nH]1        10600

Okay, next one:
**Q:** Give the measured IC50 of COc1cccc2c1C(=O)c1c(O)c3c(c(O)c1C2=O)C[C@@](O)(C(=O)CO)C[C@@H]3O[C@H]1C[C@H](N)[C@H](O)[C@H](C)O1 .
**A:** 16
